- System: COG-LL-394h
- protocol.summary: selective drug sensitivity score (sDSS, relative to normal bone marrow) (sDSS (score)); higher = more potent and effective on the cell line relative to normal bone marrow cells;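 further: ALL cell lines in 384-well plates, five doses spanning 10,000-fold, each plate scaled between vehicle and 100 µmol/L benzalkonium chloride controls, sDSS an adapted area-under-curve metric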
- run.conditions: 72 h
reported.property: selective drug sensitivity score

In the examples that follow, each entry is paired with its recorded selective drug sensitivity score.
CCCCC(=O)OCC(=O)[C@]1(O)Cc2c(O)c3c(c(O)c2[C@@H](O[C@H]2C[C@H](NC(=O)C(F)(F)F)[C@H](O)[C@H](C)O2)C1)C(=O)c1c(OC)cccc1C3=O [Valrubicin] (top concentration 5000 nM): 7.78
NC1(C(=O)N[C@@H](CCO)c2ccc(Cl)cc2)CCN(c2ncnc3[nH]ccc23)CC1 [AZD-5363] (top concentration 10000 nM): -1.08
Cn1cc(-c2ccc(F)c(C(F)(F)F)c2)nc1C1CCN(c2ncnc3[nH]ncc23)CC1 (top concentration 10000 nM): -0.14
Nc1nc(Nc2ccc3c(c2)CC[C@@H](N2CCCC2)CC3)nn1-c1cc2c(nn1)-c1ccccc1CCC2 [BGB324] (top concentration 10000 nM): 2.82
CCOc1ccn(-c2ccc(F)cc2)c(=O)c1C(=O)Nc1ccc(Oc2ccnc(N)c2Cl)c(F)c1 (top concentration 2500 nM): 0.8

# batch size: 3; output selective drug sensitivity score per entry
1. N.N.[Cl][Pt][Cl] [Cisplatin] (top concentration 100000 nM)
2. C=CC(=O)Nc1cccc(Nc2nc(Nc3ccc(N4CCN(C(C)=O)CC4)cc3OC)ncc2C(F)(F)F)c1 [Rociletinib] (top concentration 10000 nM)
3. CN(C)C1CCN(C(=O)c2ccc(NC(=O)Nc3ccc(-c4nc(N5CCOCC5)nc(N5CCOCC5)n4)cc3)cc2)CC1 [Gedatolisib] (top concentration 1000 nM)

0.54
5.24
0.56

====

- Test system: RCH-ACV
- protocol.summary: selective drug sensitivity score (sDSS, relative to normal bone marrow) (sDSS (score)); higher = more potent and effective on the cell line relative to normal bone marrow cells
- run.conditions: 72 h
Exercise: for every item that follows, state its recorded selective drug sensitivity score.

CCNc1nc(Nc2cc(F)c(C(=O)N3CCOCC3)cc2OC)ncc1C(F)(F)F [GNE-7915] (top concentration 1000 nM): -0.06
COc1cc(Nc2c(C#N)cnc3cc(OCCCN4CCN(C)CC4)c(OC)cc23)c(Cl)cc1Cl [Bosutinib] (top concentration 10000 nM): 5.76
CN[C@@H]1C[C@H]2O[C@@](C)([C@@H]1OC)n1c3ccccc3c3c4c(c5c6ccccc6n2c5c31)C(=O)N[C@H]4O [UCN-01] (top concentration 10000 nM): 18

# batch size: 6; output selective drug sensitivity score per entry
1. Cc1ccc(NS(=O)(=O)c2cccc(C#N)c2)c2[nH]cc(C#N)c12 [E7820] (top concentration 50000 nM)
2. CC(O)(CS(=O)(=O)c1ccc(F)cc1)C(=O)Nc1ccc(C#N)c(C(F)(F)F)c1 (stereo not drawn) [Bicalutamide] (top concentration 10000 nM)
3. C[C@@H]1COC(Nc2ccc3ncnc(Nc4ccc(OCc5nccs5)c(Cl)c4)c3c2)=N1 [Varlitinib] (top concentration 10000 nM)
4. CCCCCCCCCCCCCCCCCCOP(=O)([O-])OC1CC[N+](C)(C)CC1 [Perifosine] (top concentration 2500 nM)
5. Nc1cc(F)ccc1NC(=O)c1ccc(CNC(=O)/C=C/c2cccnc2)cc1 [Tucidinostat] (top concentration 10000 nM)
6. CC[C@H](CC#N)OC(=O)N[C@@H](C)c1cccc(NC(=O)Nc2ccc(-c3cnco3)c(OC)c2)c1 [AVN944] (top concentration 10000 nM)

1. 23.2
2. -1.68
3. 5.92
4. 2.34
5. 11.1
6. 22

These data points were gathered from the supplement of paper PMC8967900.
